Target: Epidermal growth factor receptor (Homo sapiens)
Assay: Binding affinity to partial length wild type human EGFR (R669 to V1011 residues) expressed in bacterial expression system assessed as fraction of unbound kinase to substrate at 10 uM after 1 hr by KinomeScan assay
Recorded Activity, one value per entry.
# unit: % | format: bare number

Reference set, count: 3
>  <smiles_text>
Cc1cnc2[nH]cnc2c1Oc1ccc(NC(=O)c2cccn(-c3ccc(F)cc3)c2=O)cc1F

>  <target_of_assay>
Epidermal growth factor receptor (Homo sapiens)

>  <quantitative_result>
0

$$$$
>  <smiles_text>
O=C(Nc1ccc(Oc2c(Br)cnc3[nH]cnc23)c(F)c1)c1cccn(-c2ccc(F)cc2)c1=O

>  <target_of_assay>
Epidermal growth factor receptor (Homo sapiens)

>  <quantitative_result>
1

$$$$
>  <smiles_text>
CC(C)c1nc2c(Oc3ccc(NC(=O)c4cccn(-c5ccc(F)cc5)c4=O)cc3F)ccnc2[nH]1

>  <target_of_assay>
Epidermal growth factor receptor (Homo sapiens)

>  <quantitative_result>
8

$$$$

--- query ---
Measured Activity, `O=C(Nc1ccc(Oc2ccnc3[nH]cnc23)c(F)c1)c1cccn(-c2ccc(F)cc2)c1=O` : 0

###

Recorded Activity, one value per entry.
Molecular target: Fibroblast growth factor receptor 1 (Homo sapiens) (UniProt P11362)
Sequence (P11362 22-822 limits assumed): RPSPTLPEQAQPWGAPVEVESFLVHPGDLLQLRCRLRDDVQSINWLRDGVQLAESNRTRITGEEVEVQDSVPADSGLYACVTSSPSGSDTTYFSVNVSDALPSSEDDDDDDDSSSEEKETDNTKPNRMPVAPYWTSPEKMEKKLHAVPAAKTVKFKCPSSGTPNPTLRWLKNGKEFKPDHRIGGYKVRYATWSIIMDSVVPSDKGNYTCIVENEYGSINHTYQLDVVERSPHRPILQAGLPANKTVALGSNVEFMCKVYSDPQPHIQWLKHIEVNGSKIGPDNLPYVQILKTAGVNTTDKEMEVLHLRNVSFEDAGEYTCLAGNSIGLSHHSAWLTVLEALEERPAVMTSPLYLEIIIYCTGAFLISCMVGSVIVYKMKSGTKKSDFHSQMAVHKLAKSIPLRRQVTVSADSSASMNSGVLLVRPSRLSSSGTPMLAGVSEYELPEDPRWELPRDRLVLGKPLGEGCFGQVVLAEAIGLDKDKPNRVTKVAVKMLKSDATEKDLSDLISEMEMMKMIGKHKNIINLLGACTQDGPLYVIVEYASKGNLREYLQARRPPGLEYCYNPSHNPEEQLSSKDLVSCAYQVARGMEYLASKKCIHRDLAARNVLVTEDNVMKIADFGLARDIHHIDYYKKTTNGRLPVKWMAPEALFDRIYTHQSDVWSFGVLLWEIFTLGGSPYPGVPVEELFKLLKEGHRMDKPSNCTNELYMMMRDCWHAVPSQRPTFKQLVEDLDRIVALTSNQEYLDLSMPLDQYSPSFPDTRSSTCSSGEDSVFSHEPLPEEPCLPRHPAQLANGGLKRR
Assay: Binding affinity to wild-type human partial length FGFR1 (P357 to V669 residues) expressed in bacterial expression system assessed as fraction of unbound kinase to substrate at 10 uM after 1 hr by KinomeScan assay
# unit: % | format: bare number

>  <smiles_text>
O=C(Nc1ccc(Oc2c(Br)cnc3[nH]cnc23)c(F)c1)c1cccn(-c2ccc(F)cc2)c1=O

>  <Activity (%)>
11

$$$$
>  <smiles_text>
Cc1cnc2[nH]cnc2c1Oc1ccc(NC(=O)c2cccn(-c3ccc(F)cc3)c2=O)cc1F

>  <Activity (%)>
15

$$$$
>  <smiles_text>
CC(C)c1nc2c(Oc3ccc(NC(=O)c4cccn(-c5ccc(F)cc5)c4=O)cc3F)ccnc2[nH]1

>  <Activity (%)>
1

$$$$

--- query ---
Measured Activity, `O=C(Nc1ccc(Oc2ccnc3[nH]cnc23)c(F)c1)c1cccn(-c2ccc(F)cc2)c1=O` : 6

###

Recorded Activity, one value per entry.
Target: Cyclin-dependent kinase 2 (Homo sapiens) (UniProt P24941)
Assay: Binding affinity to wild-type human full length CDK2 (M1 to L298 residues) expressed in bacterial expression system assessed as fraction of unbound kinase to substrate at 1 uM after 1 hr by KinomeScan assay
Your reply should be a number followed by the unit it is expressed in.

Reference set, count: 3
>  <smiles_text>
CC(C)c1nc2c(Oc3ccc(NC(=O)c4cccn(-c5ccc(F)cc5)c4=O)cc3F)ccnc2[nH]1

>  <target_of_assay>
Cyclin-dependent kinase 2 (Homo sapiens) (UniProt P24941)

>  <result>
95.5%

$$$$
>  <smiles_text>
O=C(Nc1ccc(Oc2c(Br)cnc3[nH]cnc23)c(F)c1)c1cccn(-c2ccc(F)cc2)c1=O

>  <target_of_assay>
Cyclin-dependent kinase 2 (Homo sapiens) (UniProt P24941)

>  <result>
0%

$$$$
>  <smiles_text>
O=C(Nc1ccc(Oc2ccnc3[nH]cnc23)c(F)c1)c1cccn(-c2ccc(F)cc2)c1=O

>  <target_of_assay>
Cyclin-dependent kinase 2 (Homo sapiens) (UniProt P24941)

>  <result>
0%

$$$$

--- query ---
Measured Activity, `Cc1cnc2[nH]cnc2c1Oc1ccc(NC(=O)c2cccn(-c3ccc(F)cc3)c2=O)cc1F` : 0%

###

Recorded Activity, one value per entry.
Biological target: Serine/threonine-protein kinase B-raf (Homo sapiens)
Assay: Binding affinity to wild-type human partial length BRAF (S429 to E741 residues) expressed in mammalian expression system assessed as fraction of unbound kinase to substrate at 1 uM after 1 hr by KinomeScan assay
# unit: % | format: bare number

Reference set, count: 3
>  <smiles_text>
CC(C)c1nc2c(Oc3ccc(NC(=O)c4cccn(-c5ccc(F)cc5)c4=O)cc3F)ccnc2[nH]1

>  <Activity, %>
8

$$$$
>  <smiles_text>
O=C(Nc1ccc(Oc2ccnc3[nH]cnc23)c(F)c1)c1cccn(-c2ccc(F)cc2)c1=O

>  <Activity, %>
12

$$$$
>  <smiles_text>
Cc1cnc2[nH]cnc2c1Oc1ccc(NC(=O)c2cccn(-c3ccc(F)cc3)c2=O)cc1F

>  <Activity, %>
2

$$$$

Measured Activity, `O=C(Nc1ccc(Oc2c(Br)cnc3[nH]cnc23)c(F)c1)c1cccn(-c2ccc(F)cc2)c1=O` : 0

###

Biological target: Tyrosine-protein kinase receptor TYRO3 (Homo sapiens) (UniProt Q06418)
Sequence (Q06418 whole entry, the tested form may be a part): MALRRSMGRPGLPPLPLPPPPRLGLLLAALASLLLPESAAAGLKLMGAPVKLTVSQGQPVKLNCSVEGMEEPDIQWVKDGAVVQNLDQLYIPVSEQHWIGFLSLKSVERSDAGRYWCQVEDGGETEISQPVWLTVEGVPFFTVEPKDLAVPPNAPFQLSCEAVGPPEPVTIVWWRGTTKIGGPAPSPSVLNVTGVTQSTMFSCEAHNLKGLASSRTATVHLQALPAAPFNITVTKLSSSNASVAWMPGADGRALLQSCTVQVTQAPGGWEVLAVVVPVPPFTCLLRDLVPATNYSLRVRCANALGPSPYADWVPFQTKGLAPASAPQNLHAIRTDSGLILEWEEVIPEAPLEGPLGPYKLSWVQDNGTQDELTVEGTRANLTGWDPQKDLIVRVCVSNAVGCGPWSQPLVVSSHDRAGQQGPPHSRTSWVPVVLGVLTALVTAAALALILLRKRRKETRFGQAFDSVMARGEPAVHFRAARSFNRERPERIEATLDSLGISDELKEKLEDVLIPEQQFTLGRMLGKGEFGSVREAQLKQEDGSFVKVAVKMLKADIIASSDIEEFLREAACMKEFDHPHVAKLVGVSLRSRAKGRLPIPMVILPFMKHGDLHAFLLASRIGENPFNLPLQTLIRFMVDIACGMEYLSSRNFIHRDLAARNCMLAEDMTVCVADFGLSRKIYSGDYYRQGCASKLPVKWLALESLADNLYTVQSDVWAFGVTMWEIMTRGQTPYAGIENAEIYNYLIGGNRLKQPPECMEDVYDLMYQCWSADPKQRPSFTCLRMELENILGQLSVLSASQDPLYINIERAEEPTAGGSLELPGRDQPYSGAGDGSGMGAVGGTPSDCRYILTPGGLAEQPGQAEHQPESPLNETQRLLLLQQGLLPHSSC
Test: Binding affinity to wild-type human partial length TYRO3 (S497 to T814 residues) expressed in bacterial expression system assessed as fraction of unbound kinase to substrate at 0.1 uM after 1 hr by KinomeScan assay
quantity_name: Activity (%)
# unit: % | format: bare number

Measured Activity, `CC(C)c1nc2c(Oc3ccc(NC(=O)c4cccn(-c5ccc(F)cc5)c4=O)cc3F)ccnc2[nH]1` : 1

Measured Activity, `O=C(Nc1ccc(Oc2c(Br)cnc3[nH]cnc23)c(F)c1)c1cccn(-c2ccc(F)cc2)c1=O` : 15

Measured Activity, `Cc1cnc2[nH]cnc2c1Oc1ccc(NC(=O)c2cccn(-c3ccc(F)cc3)c2=O)cc1F` : 0

Measured Activity, `O=C(Nc1ccc(Oc2ccnc3[nH]cnc23)c(F)c1)c1cccn(-c2ccc(F)cc2)c1=O` : 17

###

Target: Glycogen synthase kinase-3 beta (Homo sapiens)
Test: Binding affinity to full length wild type human GSK3beta (M1 to T433 residues) expressed in mammalian expression system assessed as fraction of unbound kinase to substrate at 0.1 uM after 1 hr by KinomeScan assay
quantity_name: Activity (%)
# unit: % | format: bare number

The reported Glycogen synthase kinase-3 beta (Homo sapiens) Activity of `O=C(Nc1ccc(Oc2c(Br)cnc3[nH]cnc23)c(F)c1)c1cccn(-c2ccc(F)cc2)c1=O` is 0

The reported Glycogen synthase kinase-3 beta (Homo sapiens) Activity of `CC(C)c1nc2c(Oc3ccc(NC(=O)c4cccn(-c5ccc(F)cc5)c4=O)cc3F)ccnc2[nH]1` is 0

The reported Glycogen synthase kinase-3 beta (Homo sapiens) Activity of `Cc1cnc2[nH]cnc2c1Oc1ccc(NC(=O)c2cccn(-c3ccc(F)cc3)c2=O)cc1F` is 2

The reported Glycogen synthase kinase-3 beta (Homo sapiens) Activity of `O=C(Nc1ccc(Oc2ccnc3[nH]cnc23)c(F)c1)c1cccn(-c2ccc(F)cc2)c1=O` is 0

###

Recorded Activity, one value per entry.
Target: Glycogen synthase kinase-3 beta (Homo sapiens) (UniProt P49841)
Sequence (P49841 whole entry, looked up, the tested form may be a part): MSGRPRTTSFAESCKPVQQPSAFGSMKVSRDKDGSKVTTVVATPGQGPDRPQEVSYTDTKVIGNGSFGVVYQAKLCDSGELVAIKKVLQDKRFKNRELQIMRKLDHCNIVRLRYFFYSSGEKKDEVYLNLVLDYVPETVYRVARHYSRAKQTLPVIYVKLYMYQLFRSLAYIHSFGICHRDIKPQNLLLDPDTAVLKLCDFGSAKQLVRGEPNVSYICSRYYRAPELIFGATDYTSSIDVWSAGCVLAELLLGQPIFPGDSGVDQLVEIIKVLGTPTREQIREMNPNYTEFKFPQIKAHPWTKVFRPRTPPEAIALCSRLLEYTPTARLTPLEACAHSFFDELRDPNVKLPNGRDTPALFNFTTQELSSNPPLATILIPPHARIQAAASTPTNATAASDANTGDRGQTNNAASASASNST
Assay: Binding affinity to full length wild type human GSK3beta (M1 to T433 residues) expressed in mammalian expression system assessed as fraction of unbound kinase to substrate at 1 uM after 1 hr by KinomeScan assay

Reference set, count: 3
>  <smiles_text>
O=C(Nc1ccc(Oc2ccnc3[nH]cnc23)c(F)c1)c1cccn(-c2ccc(F)cc2)c1=O

>  <target_of_assay>
Glycogen synthase kinase-3 beta (Homo sapiens) (UniProt P49841)

>  <Activity>
5%

$$$$
>  <smiles_text>
O=C(Nc1ccc(Oc2c(Br)cnc3[nH]cnc23)c(F)c1)c1cccn(-c2ccc(F)cc2)c1=O

>  <target_of_assay>
Glycogen synthase kinase-3 beta (Homo sapiens) (UniProt P49841)

>  <Activity>
1%

$$$$
>  <smiles_text>
Cc1cnc2[nH]cnc2c1Oc1ccc(NC(=O)c2cccn(-c3ccc(F)cc3)c2=O)cc1F

>  <target_of_assay>
Glycogen synthase kinase-3 beta (Homo sapiens) (UniProt P49841)

>  <Activity>
5%

$$$$

--- query ---
Measured Activity, `CC(C)c1nc2c(Oc3ccc(NC(=O)c4cccn(-c5ccc(F)cc5)c4=O)cc3F)ccnc2[nH]1` : 0%

###

Target: Glycogen synthase kinase-3 beta (Homo sapiens) (UniProt P49841)
Assay: Binding affinity to full length wild type human GSK3beta (M1 to T433 residues) expressed in mammalian expression system assessed as fraction of unbound kinase to substrate at 10 uM after 1 hr by KinomeScan assay
quantity_name: Activity

Reference set, count: 3
>  <smiles_text>
O=C(Nc1ccc(Oc2c(Br)cnc3[nH]cnc23)c(F)c1)c1cccn(-c2ccc(F)cc2)c1=O

>  <target_of_assay>
Glycogen synthase kinase-3 beta (Homo sapiens) (UniProt P49841)

>  <Activity>
0%

$$$$
>  <smiles_text>
CC(C)c1nc2c(Oc3ccc(NC(=O)c4cccn(-c5ccc(F)cc5)c4=O)cc3F)ccnc2[nH]1

>  <target_of_assay>
Glycogen synthase kinase-3 beta (Homo sapiens) (UniProt P49841)

>  <Activity>
0%

$$$$
>  <smiles_text>
O=C(Nc1ccc(Oc2ccnc3[nH]cnc23)c(F)c1)c1cccn(-c2ccc(F)cc2)c1=O

>  <target_of_assay>
Glycogen synthase kinase-3 beta (Homo sapiens) (UniProt P49841)

>  <Activity>
6%

$$$$

--- query ---
Measured Activity, `Cc1cnc2[nH]cnc2c1Oc1ccc(NC(=O)c2cccn(-c3ccc(F)cc3)c2=O)cc1F` : 0%

###

Target: Tyrosine-protein kinase Mer (Homo sapiens) (UniProt Q12866)
Sequence (Q12866 whole entry, the tested form may be a part): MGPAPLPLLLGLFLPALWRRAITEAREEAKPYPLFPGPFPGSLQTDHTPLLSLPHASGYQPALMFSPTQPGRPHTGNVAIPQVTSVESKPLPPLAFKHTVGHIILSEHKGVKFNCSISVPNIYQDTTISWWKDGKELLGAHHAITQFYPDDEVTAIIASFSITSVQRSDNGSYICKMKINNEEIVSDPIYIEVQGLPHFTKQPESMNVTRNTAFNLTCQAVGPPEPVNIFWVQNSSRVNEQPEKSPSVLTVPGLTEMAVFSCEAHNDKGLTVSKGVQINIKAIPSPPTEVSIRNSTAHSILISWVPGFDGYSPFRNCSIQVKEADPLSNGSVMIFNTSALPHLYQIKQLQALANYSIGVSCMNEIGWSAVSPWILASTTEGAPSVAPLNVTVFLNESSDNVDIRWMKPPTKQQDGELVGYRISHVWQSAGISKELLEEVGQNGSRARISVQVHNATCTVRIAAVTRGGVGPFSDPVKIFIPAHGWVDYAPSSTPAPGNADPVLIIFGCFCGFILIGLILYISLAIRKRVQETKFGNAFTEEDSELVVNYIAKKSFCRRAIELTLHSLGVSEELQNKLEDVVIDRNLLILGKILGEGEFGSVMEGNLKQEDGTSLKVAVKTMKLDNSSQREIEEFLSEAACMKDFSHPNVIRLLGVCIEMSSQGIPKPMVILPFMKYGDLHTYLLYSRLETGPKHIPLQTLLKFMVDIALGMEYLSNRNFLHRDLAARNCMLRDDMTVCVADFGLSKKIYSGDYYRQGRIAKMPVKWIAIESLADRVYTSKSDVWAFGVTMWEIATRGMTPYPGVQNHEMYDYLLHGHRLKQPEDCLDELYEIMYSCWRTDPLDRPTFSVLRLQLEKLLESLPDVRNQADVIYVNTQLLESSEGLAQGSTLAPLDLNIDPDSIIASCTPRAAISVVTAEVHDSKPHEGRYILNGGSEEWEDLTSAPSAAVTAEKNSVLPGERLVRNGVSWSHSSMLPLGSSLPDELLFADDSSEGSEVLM
Experiment: Binding affinity to wild-type partial length human MER (R557 to L884 residues) expressed in bacterial expression system assessed as fraction of unbound kinase to substrate at 0.1 uM after 1 hr by KinomeScan assay
quantity_name: Activity

Reference set, count: 3
>  <smiles_text>
O=C(Nc1ccc(Oc2c(Br)cnc3[nH]cnc23)c(F)c1)c1cccn(-c2ccc(F)cc2)c1=O

>  <target_of_assay>
Tyrosine-protein kinase Mer (Homo sapiens) (UniProt Q12866)

>  <result>
4%

$$$$
>  <smiles_text>
Cc1cnc2[nH]cnc2c1Oc1ccc(NC(=O)c2cccn(-c3ccc(F)cc3)c2=O)cc1F

>  <target_of_assay>
Tyrosine-protein kinase Mer (Homo sapiens) (UniProt Q12866)

>  <result>
17%

$$$$
>  <smiles_text>
CC(C)c1nc2c(Oc3ccc(NC(=O)c4cccn(-c5ccc(F)cc5)c4=O)cc3F)ccnc2[nH]1

>  <target_of_assay>
Tyrosine-protein kinase Mer (Homo sapiens) (UniProt Q12866)

>  <result>
92.3%

$$$$

--- query ---
Measured Activity, `O=C(Nc1ccc(Oc2ccnc3[nH]cnc23)c(F)c1)c1cccn(-c2ccc(F)cc2)c1=O` : 87%

The reported numbers originate from ChEMBL document CHEMBL4261615.
